# Tested on: Sam68 (KHDRBS1)
# PROTOCOL DESCRIPTION: Sam68 small-molecule binders, primary screen, biochemical, small-molecule microarray, 635 nm fluorescence (AID 1125);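 further: score merges 667 nm channel intensity with signal to noise over triplicate slides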
# CONDITION: small-molecule microarray binding, higher = more signal
RECORDED METRIC: composite z-score
Enter the number alone.

Quick check: composite z-score of COCCOC(=O)N1C(=O)[C@@]2(c3cc(C#CCC(C(=O)OC)C(=O)OC)ccc31)[C@H](c1ccc(OCCO)cc1)N1[C@H](c3ccccc3)[C@H](c3ccccc3)OC(=O)[C@H]1[C@@H]2C(=O)N1CCCCCCC1 ?
1.3

Quick check: composite z-score of [N-]=[N+]=NCc1ccccc1C[C@]1(C(=O)N2CCOCC2)N=C(c2ccc(OCCCO)cc2)O[C@H]1c1ccccc1CN=[N+]=[N-] ?
1.3

Quick check: composite z-score of N#Cc1ccc(C(O)C2C=CC3C(=O)NC(=O)C3N2Nc2ccccn2)cc1 (stereo not drawn) ?
-0.106

Quick check: composite z-score of COC(=O)[C@@]1(Cc2ccc(F)cc2)[C@H]2c3cc(C(=O)N(C)C)n(CCn4cc([N+](=O)[O-])nc4C)c3C[C@H]2CN1C(=O)c1ccccc1 ?
0.155

Quick check: composite z-score of NC(=O)[C@@]1(CCS(=O)(=O)c2ccccc2)COC(c2ccc(OCCCO)cc2)=N1 ?
-0.0922

Quick check: composite z-score of COC(=O)[C@@]1(Cc2ccc(OC)cc2)[C@H]2c3cc(C(=O)N(C)C)n(Cc4ccsc4Br)c3C[C@H]2CN1C(=O)c1ccccc1 ?
0.399

Quick check: composite z-score of CCOC(=O)C1=CC[C@@H](c2ccccc2)N(S(=O)(=O)c2ccc(C)cc2)[C@H]1C#N ?
1.2

Quick check: composite z-score of C=CCC(OC(C)=O)[C@@H]1[C@@H](N(Cc2cccc3ccccc23)C(=O)c2ccc(-c3ccccc3)cc2)c2cc(OCCCO)ccc2N1C(=O)c1ccc2ccccc2n1 (stereo partly drawn) ?
0.464

Quick check: composite z-score of COC(=O)[C@@]1(CCC(=O)OC(C)(C)C)N=C(c2ccc(OCCCO)cc2)O[C@H]1c1ccccc1CN=[N+]=[N-] ?
-0.126

Quick check: composite z-score of CC(=O)c1ccc(C(O)C2C=CC3C(=O)N(C)C(=O)C3N2NC(=O)OC(C)(C)C)cc1 (stereo not drawn) ?
1.29

Quick check: composite z-score of COCCOC(=O)N1C(=O)[C@@]2(c3cc(C#CCC(C(=O)OC)C(=O)OC)ccc31)[C@H](C(=O)N1CCCCCCC1)[C@H]1C(=O)O[C@H](c3ccccc3)[C@H](c3ccccc3)N1[C@@H]2c1ccccc1OCCO ?
1.29

Quick check: composite z-score of COc1ccc(NN2C(C(O)c3ccc(OC)cc3)C=CC3C(=O)N(C4CCCCC4)C(=O)C32)cc1 (stereo not drawn) ?
1.28

Quick check: composite z-score of COCCOC(=O)N1C(=O)[C@@]2(c3cc(C#CC4=CCCCC4)ccc31)[C@H](C(=O)N1CCN(c3ncccn3)CC1)[C@H]1C(=O)O[C@H](c3ccccc3)[C@H](c3ccccc3)N1[C@@H]2c1ccccc1OCCO ?
1.31

###

# PROTOCOL DESCRIPTION: MM1S myeloma cell viability, profiling panel, resazurin fluorescence, basal, 24 h, PK04 Diversity Set (AID 1174);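 further: MM1S multiple myeloma cell line; test concentration not given here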
# CONDITION: higher = more signal, called active from +8 up or from −8 down
Consider the following compounds; for each one, report its z-score.
Enter the number alone.

Quick check: z-score of COCCOC(=O)N1C(=O)[C@@]2(c3ccccc31)[C@H](c1ccc(OCCO)cc1)N1[C@H](c3ccccc3)[C@H](c3ccccc3)OC(=O)[C@H]1[C@@H]2C(=O)N1CCN(c2ncccn2)CC1 ?
-0.268

Quick check: z-score of C=CCC(OC(C)=O)[C@@H]1[C@@H](N(Cc2ccc(-c3ccccc3)cc2)C(=O)c2ccc(-c3ccccc3)cc2)c2cc(OCCCO)ccc2N1C(=O)c1ccc2ccccc2n1 (stereo partly drawn) ?
1.3

Quick check: z-score of COC(=O)C(CC#Cc1ccc2c(c1)[C@]1(C(=O)N2)[C@H](c2ccc(O)cc2)N2[C@H](c3ccccc3)[C@H](c3ccccc3)OC(=O)[C@H]2[C@@H]1C(=O)N1CCc2cc(OC)c(OC)cc2C1)C(=O)OC ?
-0.938
